For each record, write down the corresponding log10 of IC50.
- Measured target: H+,K+-ATPase (gastric mucous membrane microsomal fraction) (Sus scrofa)
- Construct: The obtained microsomal fraction was used as a proton, potassium-adenosine triphosphatase standard product
- Sequence (P19156 2-1034 limits assumed): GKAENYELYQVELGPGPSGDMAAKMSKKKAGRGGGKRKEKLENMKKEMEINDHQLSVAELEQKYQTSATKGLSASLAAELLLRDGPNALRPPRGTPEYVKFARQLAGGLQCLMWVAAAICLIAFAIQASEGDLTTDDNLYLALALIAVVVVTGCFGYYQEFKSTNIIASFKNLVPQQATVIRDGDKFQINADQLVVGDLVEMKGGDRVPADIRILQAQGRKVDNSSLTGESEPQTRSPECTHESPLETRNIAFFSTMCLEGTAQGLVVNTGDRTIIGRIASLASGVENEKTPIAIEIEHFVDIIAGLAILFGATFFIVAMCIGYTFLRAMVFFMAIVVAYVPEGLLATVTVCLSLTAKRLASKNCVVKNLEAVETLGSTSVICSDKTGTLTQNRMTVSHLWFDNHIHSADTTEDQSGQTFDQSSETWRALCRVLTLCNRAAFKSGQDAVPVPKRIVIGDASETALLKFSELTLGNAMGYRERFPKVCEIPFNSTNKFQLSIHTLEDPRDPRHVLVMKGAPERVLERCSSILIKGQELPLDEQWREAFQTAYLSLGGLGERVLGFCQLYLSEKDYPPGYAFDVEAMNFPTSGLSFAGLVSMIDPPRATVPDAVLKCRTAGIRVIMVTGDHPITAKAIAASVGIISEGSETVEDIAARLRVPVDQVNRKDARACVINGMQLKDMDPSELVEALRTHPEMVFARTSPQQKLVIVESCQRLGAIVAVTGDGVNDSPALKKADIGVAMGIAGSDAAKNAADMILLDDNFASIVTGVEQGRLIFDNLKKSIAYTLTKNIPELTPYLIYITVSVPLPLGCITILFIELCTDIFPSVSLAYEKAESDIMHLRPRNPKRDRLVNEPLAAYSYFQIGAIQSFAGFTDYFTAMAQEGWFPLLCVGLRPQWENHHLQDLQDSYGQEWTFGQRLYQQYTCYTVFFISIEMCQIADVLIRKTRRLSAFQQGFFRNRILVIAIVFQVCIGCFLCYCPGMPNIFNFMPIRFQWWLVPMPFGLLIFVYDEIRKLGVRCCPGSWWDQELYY
- Sequence (P18434 whole entry partner): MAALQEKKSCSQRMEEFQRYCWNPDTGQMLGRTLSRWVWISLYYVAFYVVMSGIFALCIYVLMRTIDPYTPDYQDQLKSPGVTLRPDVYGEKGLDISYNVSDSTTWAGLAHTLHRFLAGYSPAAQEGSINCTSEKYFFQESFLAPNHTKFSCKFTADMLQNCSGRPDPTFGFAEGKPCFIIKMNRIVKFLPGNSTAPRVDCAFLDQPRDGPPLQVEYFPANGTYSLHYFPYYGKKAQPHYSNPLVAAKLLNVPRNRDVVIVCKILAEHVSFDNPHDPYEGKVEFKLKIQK
- Assay protocol: Proton potassium-adenosine triphosphatase (H+,K+-ATPase) inhibitory activity test
- Condition set: swine gastric microsomal fraction, pH 6.5, 37° C., 30 min preincubation
Heads up: the numbers are on a log10 scale; they represent IC50 in µM.

// query Please provide the recorded log10 of IC50 for CNCc1cc(-c2ccccc2C)n(S(=O)(=O)c2cccnc2)c1.O=C(O)/C=C/C(=O)O [Example 47, fumarate] , tested on H+,K+-ATPase (gastric mucous membrane microsomal fraction) (Sus scrofa).
// result -1.24

// query What about CNCc1cc(-c2ccccc2)n(S(=O)(=O)c2ccc(OC)nc2)c1.Cl [Example 2, hydrochloride] ?
// result -1.89

// query What about CNCc1cc(-c2ccc(F)cc2F)n(S(=O)(=O)c2cccnc2)c1.Cl.Cl [Example 32, dihydrochloride] ?
// result -2.05

// query What about CNCc1cc(-c2cccnc2F)n(S(=O)(=O)c2cccnc2)c1.O=C(O)/C=C/C(=O)O [Example 74, fumarate] ?
// result -0.68

// query What about CNCc1cc(-c2ccccc2F)n(S(=O)(=O)c2cccnc2)c1.O=C(O)/C=C/C(=O)O [Example 8, fumarate] ?
// result -1.66

// query What about CNCc1cn(S(=O)(=O)c2cccnc2)c(-c2ccccc2)c1F.Cl.Cl [Example 41, dihydrochloride] ?
// result -1.37

// query What about CNCc1cc(-c2cscc2C)n(S(=O)(=O)c2cccnc2)c1.Cl.Cl [Example 29, dihydrochloride] ?
// result -1.39

// query What about CNCc1cc(-c2ccccc2)n(S(=O)(=O)c2cnc(NC)nc2)c1.Cl [Example 5, hydrochloride] ?
// result -1.19

// query What about CNCc1cc(-c2ccccc2F)n(S(=O)(=O)c2ccc(C)nc2)c1.Cl.Cl [Example 44, dihydrochloride] ?
// result -1.32

// query What about CNCc1cc(-c2ccccc2)n(S(=O)(=O)c2cnc(C)nc2)c1.Cl.Cl [Example 7, dihydrochloride] ?
// result -1.47

====

- System: HepG2 cells
- Assay protocol: Intracellular ATP content in HepG2 cells (cytotoxicity)
- Assay type: cell-based, human
- Condition set: HepG2, 30 μM, culture for one day, relative value to control, ATPLite, n≧3 average
Attribute measured: ATP content (%, 30 μM) (%)
Please give a number only; it is taken to be in %.

// query Please provide the recorded ATP content (%, 30 μM) for CNCc1cc(-c2ccccc2F)n(S(=O)(=O)c2ccc(C)nc2)c1.Cl.Cl [Example 44] , tested on HepG2 cells.
// result 78.5

// query What about CNCc1cc(-c2ccccc2)n(S(=O)(=O)c2cnc(NC)nc2)c1.Cl [Example 5] ?
// result 73.9

// query What about CNCc1cc(-c2ccccc2)n(S(=O)(=O)c2ccc(OC)nc2)c1.Cl [Example 2] ?
// result 45.2

// query What about CNCc1cc(-c2cscc2C)n(S(=O)(=O)c2cccnc2)c1.Cl.Cl [Example 29] ?
// result 71.5

// query What about CNCc1cc(-c2ccccc2F)n(S(=O)(=O)c2cccnc2)c1.O=C(O)/C=C/C(=O)O [Example 8] ?
// result 87.9

// query What about CNCc1cc(-c2ccccc2C)n(S(=O)(=O)c2cccnc2)c1.O=C(O)/C=C/C(=O)O [Example 47] ?
// result 81.8

// query What about CNCc1cn(S(=O)(=O)c2cccnc2)c(-c2ccccc2)c1F.Cl.Cl [Example 41] ?
// result 86.7

// query What about CNCc1cc(-c2ccc(F)cc2F)n(S(=O)(=O)c2cccnc2)c1.Cl.Cl [Example 32] ?
// result 53.6

// query What about CNCc1cc(-c2ccccc2)n(S(=O)(=O)c2cnc(C)nc2)c1.Cl.Cl [Example 7] ?
// result 76.5

// query What about CNCc1cc(-c2cccnc2F)n(S(=O)(=O)c2cccnc2)c1.O=C(O)/C=C/C(=O)O [Example 74] ?
// result 95.2
